System: ALL-SIL;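 also: ALL cell lines in 384-well plates, five doses spanning 10,000-fold, each plate scaled between vehicle and 100 µmol/L benzalkonium chloride controls, sDSS an adapted area-under-curve metric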
Procedure details: selective drug sensitivity score (sDSS, relative to normal bone marrow) (sDSS (score)); higher = more potent and effective on the cell line relative to normal bone marrow cells
Experimental setup: 72 h
Reported endpoint: selective drug sensitivity score
One number for each entry.

Example results:
Nc1ncnc2c1c(COc1cccc(Cl)c1)nn2C1CCOCC1 (top concentration 10000 nM)
-0.64
Nc1nc(Cl)nc2c1ncn2[C@@H]1O[C@H](CO)[C@@H](O)[C@@H]1F [Clofarabine] (top concentration 10000 nM)
4.9
C[C@]12CC[C@H](O)CC1=CC[C@@H]1[C@@H]2CC[C@]2(C)C(c3cccnc3)=CC[C@@H]12 [Abiraterone] (top concentration 5000 nM)
-0.12
O=c1[nH]c(C2CCCN2)nc2c1oc1ccc(Cl)cc12 (configuration not stated) (top concentration 10000 nM)
0.6
CNC(=O)c1ccc(-c2cnc3ncc(Cc4ccc5ncccc5c4)n3n2)cc1F [Capmatinib] (top concentration 1000 nM)
-0.06
CS(=O)(=O)N1CCN(Cc2cc3nc(-c4cccc5[nH]ncc45)nc(N4CCOCC4)c3s2)CC1 [Pictilisib] (top concentration 10000 nM)
4.56

# next compound below
Dear colleague, I am looking for the recorded selective drug sensitivity score of the following compound: COC(=O)c1ccc2c(c1)NC(=O)/C2=C(\Nc1ccc(N(C)C(=O)CN2CCN(C)CC2)cc1)c1ccccc1 [Nintedanib] (top concentration 10000 nM)
14.3
